Test system: OVCAR-3 ovarian
Test: NCI-60 one-dose screen, 48 h
Conditions: 10 µM unless noted
About 83,000 compounds went through this panel and 20% of them were active in at least one assay; those are over-represented in the sample as a whole. Calls of active or inactive are those of the source. The calls were made as follows: active = growth percent below 10; inactive = the rest.
The categories you may choose from are label 1 (active), label 0 (inactive)

For this compound, state the assay outcome: `CCN1C2CCC1/C(=C\c1ccccc1)C(=O)/C2=C/c1ccccc1`
label 0

For this compound, state the assay outcome: `CCOC(=O)C/C(=N\Nc1cc(=O)[nH]c2ccc(OC)cc12)C(=O)OCC`
label 0

###

System: K-562 leukemia
Test: NCI-60 one-dose screen, 48 h
Details: 10 µM unless noted
About 83,000 compounds went through this panel and 20% of them were active in at least one assay; those are over-represented in the sample as a whole. The source made the active and inactive calls. How the source made its calls: active means growth percent below 10; inactive means the rest.
The categories you may choose from are active, inactive

Completed entries (count: 5):
CCOC(=O)C1=C(CCl)N(C)C(=O)NC1c1ccc2c(c1)OCO2 (centres undefined): inactive
Cc1sc2nc(NCCN)[nH]c(=O)c2c1C: inactive
C=C1C(=O)O[C@H]2[C@H]1CC/C(COC(=O)C(=O)c1c[nH]c3ccc(Cl)cc13)=C\CC[C@@]1(C)O[C@@H]21: active
COc1ccc2c(O)c(/C=C3\N=Nc4ncccc43)oc2c1C[C@@H]1CCNC[C@H]1F: active
COc1ccc(-c2cc(C(=O)N3N=C(c4ccc(N)cc4)CC3c3ccc(Cl)cc3)c3ccccc3n2)cc1 (centres undefined): active

For this molecule, state the assay outcome: O=S(Nc1ccccc1)c1ccc(Cl)cc1 (centres undefined)
inactive

For this molecule, state the assay outcome: CCn1cc(C(=O)O)c(=O)c2cc(F)c(N3CCN(CC(=O)Nc4ccccc4)C(C)C3)c(F)c21 (centres undefined)
inactive

For this molecule, state the assay outcome: `Cc1cc2oc(/C=C/c3ccccc3)cc(=O)c2c(C)c1Cl`
inactive

For this molecule, state the assay outcome: `Oc1c(I)cc(I)cc1CN(Cc1ccccn1)Cc1ccccn1`
inactive

For this molecule, state the assay outcome: COc1ccc(C(O)c2cc3c(N)c(C(=O)Nc4cccc5ccccc45)sc3nc2C)cc1 (centres undefined)
inactive

For this molecule, state the assay outcome: CCOC(=O)c1cnn(CC(C)O)c1NC(=O)NCc1ccccc1C(F)(F)F (centres undefined)
inactive

For this molecule, state the assay outcome: COc1ccccc1S(=O)(=O)Nc1ccc2c3c(cc(CCC(=O)NCCCCNc4cccc5c4C(=O)N(C4CCC(=O)NC4=O)C5=O)cc13)C(=O)N2C (centres undefined)
inactive

For this molecule, state the assay outcome: COc1cc2c(c(OC)c1OC)C(=O)CC(c1cccc(C(=O)Nc3ccc(C#N)cc3)c1)O2 (centres undefined)
inactive

For this molecule, state the assay outcome: `C=C1CC[C@@H]2C(C)(C)[C@H](O)CC[C@@]2(C)[C@@H]1COc1ccc2ccc(=O)oc2c1`
inactive

For this molecule, state the assay outcome: `Cn1c(=O)[nH]c(=O)c2nc3c(nc21)-c1ccccc1C3=O`
inactive

For this molecule, state the assay outcome: `COc1ccc(C(=O)/C=C/c2ccccc2)cc1S(N)(=O)=O`
active

For this molecule, state the assay outcome: `Cc1nn(-c2ccc([N+](=O)[O-])cc2)c2ncnc(N/N=C/c3ccccc3O)c12`
inactive

For this molecule, state the assay outcome: `Cc1[nH]c(C(=O)Nc2ccccc2OC2CCN(CCN3CCOCC3)CC2)c(Cl)c1Cl`
inactive

For this molecule, state the assay outcome: `NS(=O)(=O)c1ccc(C(=O)NN2C(=O)c3ccccc3C2=O)cc1`
inactive
